Listed here are compounds together with their documented GI50.
# Tested on: NCI-H1048 cells
# method.description: MTT proliferation assay, NCI-H1048;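 also: Dose-response in 96-well plates over 8 or 10 concentration points, with exposure spanning 3-4 cell doublings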
# Assay type: cell-based
# measurement.conditions: 5 days compound exposure, 1:3 serial dilution starting at 10 μM
recorded.endpoint: GI50 (µM)

record.smiles	value.units	value.observed
CC(C)C[C@@H]1NC(=O)[C@@H](N(C)C(=O)[C@@H](NC(=O)[C@@H]2C[C@@H](F)CN2C(=O)C2(C(F)(F)F)CC(F)(F)C2)C2CC2)CC=CCCCCN(C)C(=O)[C@H](Cc2cc(F)ccc2-c2cnn(C3CCOCC3)c2)N(C)C1=O	µM	0.02
CC(C)C[C@@H]1NC(=O)[C@@H](N(C)C(=O)[C@@H](NC(=O)[C@@H]2C[C@@H](F)CN2C(=O)C2(C(F)(F)F)CC(F)(F)C2)C2CC2)CCCCCCN(C)C(=O)[C@H](Cc2cc(Cl)ccc2-c2cnn(C3CC3)c2)N(C)C1=O	µM	0.04
CC(C)C[C@@H]1NC(=O)[C@@H](N(C)C(=O)[C@@H](NC(=O)[C@@H]2C[C@@H](F)CN2C(=O)C2(C(F)(F)F)CCC2)C2CC2)CC=CCCCCN(C)C(=O)[C@H](Cc2cc(Cl)cnc2OC(C)C)N(C)C1=O	µM	0.6
